Target: PERK recombinant enzyme (cytoplasmic domain corresponding to residues 540-1115) (Homo sapiens (Human), UniProt Q9NZJ5)
Sequence (Q9NZJ5 540-1115): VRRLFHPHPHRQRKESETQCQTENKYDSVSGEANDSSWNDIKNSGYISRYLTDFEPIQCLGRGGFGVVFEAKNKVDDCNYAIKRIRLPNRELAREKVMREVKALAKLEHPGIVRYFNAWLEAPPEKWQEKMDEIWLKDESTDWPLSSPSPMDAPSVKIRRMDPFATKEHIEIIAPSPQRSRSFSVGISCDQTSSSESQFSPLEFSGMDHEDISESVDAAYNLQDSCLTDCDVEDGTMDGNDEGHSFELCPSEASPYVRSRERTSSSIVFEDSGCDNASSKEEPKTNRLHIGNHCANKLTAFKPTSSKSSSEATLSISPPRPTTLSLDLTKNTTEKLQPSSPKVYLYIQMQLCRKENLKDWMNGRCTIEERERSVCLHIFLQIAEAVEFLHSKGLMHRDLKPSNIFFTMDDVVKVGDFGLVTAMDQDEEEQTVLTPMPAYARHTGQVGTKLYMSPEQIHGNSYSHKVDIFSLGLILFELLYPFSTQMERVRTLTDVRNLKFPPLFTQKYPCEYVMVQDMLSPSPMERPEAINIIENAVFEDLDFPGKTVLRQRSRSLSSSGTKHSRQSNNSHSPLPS
Test: PERK enzyme assay, Method 1: ADP-Glo Kinase Assay (quantification of ADP formed)
Format: biochemical
Details: 52 microM ATP, 8 nM PERK, 300 microM eIF2alpha peptide substrate, 60 minutes at room temperature
measureName: pIC50

Please review the entries below; each comes with its answer.
{"structureSmiles": "Cn1cc(-c2cccc(NS(=O)(=O)c3ccc4c(c3)CCO4)c2F)c2c(N)ncnc21", "pIC50": "AA (7.8 ≤ pIC50)"}
{"structureSmiles": "COc1ccc(S(=O)(=O)Nc2cccc(-c3cn(C4CCN(C(C)C)CC4)c4ncnc(N)c34)c2F)cc1Cl", "pIC50": "AA (7.8 ≤ pIC50)"}
{"structureSmiles": "COc1cc(F)c(S(=O)(=O)Nc2cccc(-c3cn(C)c4ncnc(N)c34)c2F)cc1C", "pIC50": "AA (7.8 ≤ pIC50)"}
{"structureSmiles": "Cc1cc(S(=O)(=O)Nc2cccc(-c3cn(C)c4ncnc(N)c34)c2F)ccc1Br", "pIC50": "AA (7.8 ≤ pIC50)"}

Tell me measured pIC50 for `COc1ccc(S(=O)(=O)Nc2cccc(-c3cn(C(C)C)c4ncnc(N)c34)c2F)cc1Cl` please.
AA (7.8 ≤ pIC50)

Tell me measured pIC50 for `COc1ccc(S(=O)(=O)Nc2cccc(-c3cn(C4CCN(C)CC4)c4ncnc(N)c34)c2F)cc1C` please.
AA (7.8 ≤ pIC50)

Tell me measured pIC50 for `COc1cc(F)c(S(=O)(=O)Nc2cccc(-c3nn(C)c4ncnc(N)c34)c2F)cc1Cl` please.
AA (7.8 ≤ pIC50)

Tell me measured pIC50 for `COc1ccc(S(=O)(=O)Nc2cccc(-c3cn(C4CCN(C)CC4)c4ncnc(N)c34)c2F)cc1Cl` please.
AA (7.8 ≤ pIC50)

Tell me measured pIC50 for `Cn1cc(-c2cccc(NS(=O)(=O)c3ccc4ccccc4c3)c2F)c2c(N)ncnc21` please.
C (pIC50 < 6.8)

Tell me measured pIC50 for `COc1cc(F)c(S(=O)(=O)Nc2cccc(-c3cn(C)c4ncnc(N)c34)c2F)cc1Cl` please.
AA (7.8 ≤ pIC50)

Tell me measured pIC50 for `Cn1cc(-c2cccc(NS(=O)(=O)c3cc(F)ccc3F)c2F)c2c(N)ncnc21` please.
C (pIC50 < 6.8)

Tell me measured pIC50 for `Cc1cc(S(=O)(=O)Nc2cccc(-c3cn(C)c4ncnc(N)c34)c2F)ccc1OC(C)C` please.
C (pIC50 < 6.8)

###

Molecular target: PERK recombinant enzyme (cytoplasmic domain corresponding to residues 540-1115) (Homo sapiens (Human), UniProt Q9NZJ5)
Test: PERK enzyme assay, Method 2: quantification of phosphorylated product with ATP/P33 gammaATP (Dowex resin)
Assay type: biochemical
Conditions: Method 2 (P33 gammaATP radiometric); 52 microM ATP, 8 nM PERK, 300 microM eIF2alpha peptide substrate, 60 minutes at room temperature
measureName: pIC50

Please review the entries below; each comes with its answer.
{"molecule": "CN1CCC(n2cc(-c3cccc(NS(=O)(=O)c4ccc(Cl)c(Cl)c4)c3F)c3c(N)ncnc32)CC1 [cmpd 71]", "result": "AA (7.8 ≤ pIC50)"}
{"molecule": "COc1cc(F)c(S(=O)(=O)Nc2cccc(-c3cn(C4CCN(C)CC4)c4ncnc(N)c34)c2F)cc1C [cmpd 73]", "result": "AA (7.8 ≤ pIC50)"}
{"molecule": "Cn1cc(-c2cccc(NS(=O)(=O)C3CCCCC3)c2F)c2c(N)ncnc21 [cmpd 89]", "result": "C (pIC50 < 6.8)"}
{"molecule": "COc1ccc(S(=O)(=O)Nc2cccc(-c3nn(C4CCN(C(=O)OC(C)(C)C)CC4)c4ncnc(N)c34)c2F)cc1Cl [cmpd 11]", "result": "C (pIC50 < 6.8)"}

Tell me measured pIC50 for COc1cc(F)c(S(=O)(=O)Nc2cccc(-c3nn(C4CCN(C(=O)OC(C)(C)C)CC4)c4ncnc(N)c34)c2F)cc1Cl [cmpd 10] please.
C (pIC50 < 6.8)

###

Below is a list of entries, each paired with its recorded pIC50 value.
Biological target: PERK recombinant enzyme (cytoplasmic domain corresponding to residues 540-1115) (Homo sapiens (Human), UniProt Q9NZJ5)
Assay: PERK enzyme assay, Method 1: ADP-Glo Kinase Assay (quantification of ADP formed)
Assay type: biochemical
Settings: 52 microM ATP, 8 nM PERK, 300 microM eIF2alpha peptide substrate, 60 minutes at room temperature
pIC50: −log10 of the molar value.

Tell me measured pIC50 for `COc1ccc(S(=O)(=O)Nc2cccc(-c3cn(C)c4ncnc(N)c34)c2F)cn1` please.
6.80 to 7.30

Tell me measured pIC50 for `CCN1CCC(n2cc(-c3cccc(NS(=O)(=O)c4ccc(OC)c(C)c4)c3F)c3c(N)ncnc32)CC1` please.
7.30 to 7.80

Tell me measured pIC50 for `COc1ccc(S(=O)(=O)Nc2cccc(-c3cn(C)c4ncnc(N)c34)c2F)cc1` please.
6.80 to 7.30

Tell me measured pIC50 for `COc1ccc(S(=O)(=O)Nc2cccc(-c3cn(C4CCN(C5CC5)CC4)c4ncnc(N)c34)c2F)cc1Cl` please.
7.30 to 7.80

###

Below is a list of entries, each paired with its recorded IC50 value.
Target: PERK recombinant enzyme (cytoplasmic domain corresponding to residues 540-1115) (Homo sapiens (Human), UniProt Q9NZJ5)
Test: PERK enzyme assay, Method 1: ADP-Glo Kinase Assay (quantification of ADP formed)
Assay type: biochemical
Details: 52 microM ATP, 8 nM PERK, 300 microM eIF2alpha peptide substrate, 60 minutes at room temperature

{"structureSmiles": "Cn1cc(-c2cccc(NS(=O)(=O)c3c(F)cccc3F)c2F)c2c(N)ncnc21", "IC50": "50.1 to 158 nM"}
{"structureSmiles": "Cn1cc(-c2cccc(NS(=O)(=O)c3ccc([N+](=O)[O-])cc3)c2F)c2c(N)ncnc21", "IC50": "15.8 to 50.1 nM"}
{"structureSmiles": "COc1ccc(S(=O)(=O)Nc2cccc(-c3cn(C4CCOCC4)c4ncnc(N)c34)c2F)cc1C", "IC50": "15.8 to 50.1 nM"}
{"structureSmiles": "Cn1cc(-c2cccc(NS(=O)(=O)c3ccc(Cl)cc3F)c2F)c2c(N)ncnc21", "IC50": "15.8 to 50.1 nM"}
{"structureSmiles": "COc1cc(F)c(S(=O)(=O)Nc2cccc(-c3cn(C(C)C)c4ncnc(N)c34)c2F)cc1Cl", "IC50": "50.1 to 158 nM"}
{"structureSmiles": "COc1ccc(S(=O)(=O)Nc2cccc(-c3cn(C4CCN(C5CC5)CC4)c4ncnc(N)c34)c2F)cc1C", "IC50": "15.8 to 50.1 nM"}
{"structureSmiles": "CCOc1ccc(S(=O)(=O)Nc2cccc(-c3cn(C)c4ncnc(N)c34)c2F)cc1C", "IC50": "15.8 to 50.1 nM"}
{"structureSmiles": "CN1CCOc2cc(S(=O)(=O)Nc3cccc(-c4cn(C)c5ncnc(N)c45)c3F)ccc21", "IC50": "50.1 to 158 nM"}

Tell me measured IC50 for `Cn1cc(-c2cccc(NS(=O)(=O)c3cc(Cl)cc(Cl)c3)c2F)c2c(N)ncnc21` please.
15.8 to 50.1 nM

Tell me measured IC50 for `COc1cc(F)c(S(=O)(=O)Nc2cccc(-c3cn(C4CCOCC4)c4ncnc(N)c34)c2F)cc1Cl` please.
50.1 to 158 nM

Tell me measured IC50 for `Cn1cc(-c2cccc(NS(=O)(=O)c3cc(C(F)(F)F)cc(C(F)(F)F)c3)c2F)c2c(N)ncnc21` please.
50.1 to 158 nM

Tell me measured IC50 for `COc1c(C)cc(S(=O)(=O)Nc2cccc(-c3cn(C)c4ncnc(N)c34)c2F)cc1C` please.
15.8 to 50.1 nM

Tell me measured IC50 for `Cn1cc(-c2cccc(NS(=O)(=O)c3cnc(Cl)c(Br)c3)c2F)c2c(N)ncnc21` please.
15.8 to 50.1 nM

Tell me measured IC50 for `Cn1cc(-c2cccc(NS(=O)(=O)c3ccc(Br)s3)c2F)c2c(N)ncnc21` please.
15.8 to 50.1 nM

Tell me measured IC50 for `Cn1cc(-c2cccc(NS(=O)(=O)c3ccc(Br)c(C(F)(F)F)c3)c2F)c2c(N)ncnc21` please.
15.8 to 50.1 nM

Tell me measured IC50 for `COc1ccc(S(=O)(=O)Nc2cccc(-c3cn(C4CCOCC4)c4ncnc(N)c34)c2F)cc1Cl` please.
15.8 to 50.1 nM

###

Biological target: PERK recombinant enzyme (cytoplasmic domain corresponding to residues 540-1115) (Homo sapiens (Human), UniProt Q9NZJ5)
Assay: PERK enzyme assay, Method 2: quantification of phosphorylated product with ATP/P33 gammaATP (Dowex resin)
Assay type: biochemical
Conditions: Method 2 (P33 gammaATP radiometric); 52 microM ATP, 8 nM PERK, 300 microM eIF2alpha peptide substrate, 60 minutes at room temperature
measureName: IC50

Please review the entries below; each comes with its answer.
{"structureSmiles": "COc1cc(F)c(S(=O)(=O)Nc2cccc(-c3cn(C)c4ncnc(N)c34)c2C#N)cc1Cl", "IC50": "50.1 to 158 nM"}
{"structureSmiles": "COc1ccc(S(=O)(=O)Nc2cccc(-c3nn(C4CCN(C)CC4)c4ncnc(N)c34)c2F)cc1Cl", "IC50": "50.1 to 158 nM"}
{"structureSmiles": "CN1CCC(n2cc(-c3cccc(NS(=O)(=O)c4ccc(Br)s4)c3F)c3c(N)ncnc32)CC1", "IC50": "15.8 to 50.1 nM"}
{"structureSmiles": "CN1CCC(n2cc(-c3cccc(NS(=O)(=O)c4ccc(Br)cc4F)c3F)c3c(N)ncnc32)CC1", "IC50": "15.8 to 50.1 nM"}
{"structureSmiles": "COc1cc(S(=O)(=O)Nc2cccc(-c3cn(C)c4ncnc(N)c34)c2F)c(F)cc1Cl", "IC50": "15.8 to 50.1 nM"}
{"structureSmiles": "COc1cc(F)c(S(=O)(=O)Nc2cccc(-c3nn(C4CCN(C(C)C)CC4)c4ncnc(N)c34)c2F)cc1Cl", "IC50": "50.1 to 158 nM"}

Tell me measured IC50 for `COc1cc(F)c(S(=O)(=O)Nc2cccc(-c3nn(C4CCN(C)CC4)c4ncnc(N)c34)c2F)cc1Cl` please.
15.8 to 50.1 nM

Tell me measured IC50 for `COc1ccc(S(=O)(=O)Nc2cccc(-c3nn(C4CCNCC4)c4ncnc(N)c34)c2F)cc1Cl` please.
15.8 to 50.1 nM

Tell me measured IC50 for `COc1cc(F)c(S(=O)(=O)Nc2cccc(-c3nn(C4CCNCC4)c4ncnc(N)c34)c2F)cc1Cl` please.
15.8 to 50.1 nM
